test_target: T1, human IL-6 (human, UniProt P05231 30-212)
T1 construct: the protein used was bought recombinant human IL-6 (R&D Systems), in part biotinylated; also called rhIL-6; hIL-6
experiment: panning and screening on IL-6
recorded_endpoint: binding result

SEQ ID NO 784 (designed binder) CLSSQFQCDNGNCVPQQWVCDGDNDCLDDSDETSCSAPASEPPGSLCPASQFPCSSGHCVPLNWVCDGVNDCVDGSDEAGCPPRTCLPDQFQCGSGYCISQRWVCDGENDCEDSSDEANCAGSVPT ... binds
CQANEFTCSSGNCLSPALLCDGVDDCGDNSDETNCASPAPT (designed binder) [SEQ ID NO 511] ... binds
SEQ ID NO 720 (designed binder) CLASQFRCGNGSCLSQTLLCDGVNDCADNSDEVSCPPPTCLPSQFQCGSGYCISQRWVCDGENDCEDSSDEANCAGSVPT ... binds
